# Measured target: Human immunodeficiency virus type 1 reverse transcriptase (Human immunodeficiency virus 1)
# Procedure summary: Inhibition of recombinant HIV-1 reverse transcriptase at 0.66 mM incubated for 1 hr by ELISA relative to control

# Compound, inhibition
rows = [
    ("COc1cccc(Cn2cc(CNC(=O)c3[nH]c4ccc(Cl)cc4c3S(=O)(=O)c3cc(C)cc(C)c3)nn2)c1", "< 85%"),
    ("Cc1cc(C)cc(S(=O)(=O)c2c(C(=O)NCc3cn(Cc4ccccc4C#N)nn3)[nH]c3ccc(Cl)cc23)c1", "< 85%"),
    ("Cc1cc(C)cc(S(=O)(=O)c2c(C(=O)NCc3cn(Cc4ccc(Cl)cc4)nn3)[nH]c3ccc(Cl)cc23)c1", "< 85%"),
    ("Cc1cc(C)cc(S(=O)(=O)c2c(C(=O)NCc3cn(-c4ccc(C(=O)O)cc4Cl)nn3)[nH]c3ccc(Cl)cc23)c1", "< 85%"),
    ("Cc1cc(C)cc(S(=O)(=O)c2c(C(=O)NCc3cn(CC(=O)NC4CC4)nn3)[nH]c3ccc(Cl)cc23)c1", "< 85%"),
    ("Cc1cc(C)cc(S(=O)(=O)c2c(C(=O)NCc3cn(CCc4ccccc4)nn3)[nH]c3ccc(Cl)cc23)c1", "> 85%"),
    ("Cc1cc(C)cc(S(=O)(=O)c2c(C(=O)NCc3cn(CC(=O)Nc4ccccc4)nn3)[nH]c3ccc(Cl)cc23)c1", "< 85%"),
    ("Cc1cc(C)cc(S(=O)(=O)c2c(C(=O)NCc3cn(CSc4ccccc4)nn3)[nH]c3ccc(Cl)cc23)c1", "> 85%"),
    ("Cc1cc(C)cc(S(=O)(=O)c2c(C(=O)NCc3cn(-c4ccc(C(=O)O)cc4)nn3)[nH]c3ccc(Cl)cc23)c1", "< 85%"),
    ("Cc1cc(C)cc(S(=O)(=O)c2c(C(=O)NCc3cn(CC(=O)N4CCOCC4)nn3)[nH]c3ccc(Cl)cc23)c1", "< 85%"),
    ("COc1ccccc1Cn1cc(CNC(=O)c2[nH]c3ccc(Cl)cc3c2S(=O)(=O)c2cc(C)cc(C)c2)nn1", "< 85%"),
    ("Cc1cc(C)cc(S(=O)(=O)c2c(C(=O)NCc3cn(-c4cc5ccccc5s4)nn3)[nH]c3ccc(Cl)cc23)c1", "< 85%"),
    ("Cc1cc(C)cc(S(=O)(=O)c2c(C(=O)NCc3cn([C@H]4C[C@H](n5cc(C)c(=O)[nH]c5=O)O[C@@H]4CO)nn3)[nH]c3ccc(Cl)cc23)c1 (single isomer, unassigned)", "< 85%"),
    ("CCOC(=O)Cn1cc(CNC(=O)c2[nH]c3ccc(Cl)cc3c2S(=O)(=O)c2cc(C)cc(C)c2)nn1", "> 85%"),
    ("COC(=O)CCCn1cc(CNC(=O)c2[nH]c3ccc(Cl)cc3c2S(=O)(=O)c2cc(C)cc(C)c2)nn1", "> 85%"),
    ("Cc1cc(C)cc(S(=O)(=O)c2c(C(=O)NCc3cn(CC(=O)Nc4ccc(C(F)(F)F)cc4)nn3)[nH]c3ccc(Cl)cc23)c1", "> 85%"),
    ("Cc1cc(C)cc(S(=O)(=O)c2c(C(=O)NCc3cn(Cc4ccccc4Cl)nn3)[nH]c3ccc(Cl)cc23)c1", "< 85%"),
]

###

pEC50 overview
# System: Human immunodeficiency virus 1
# Procedure summary: Antiviral activity against HIV-1 harboring L100I mutant infected in human MT4 cells assessed as inhibition of virus induced cytotoxicity incubated for 5 days by spectrophometry based MTT assay
# Assay type: functional, organism-based
# Applied conditions: Human immunodeficiency virus 1, MT4, 120 h
pEC50: −log10 of the molar value.

# Compound structure, pEC50
measured = [
    ("Cc1cc(C)cc(S(=O)(=O)c2c(C(=O)NCc3cn(CC(=O)Nc4ccc(F)cc4)nn3)[nH]c3ccc(Cl)cc23)c1", 6.28),
    ("COC(=O)CCCn1cc(CNC(=O)c2[nH]c3ccc(Cl)cc3c2S(=O)(=O)c2cc(C)cc(C)c2)nn1", 6.57),
    ("CCOC(=O)Cn1cc(CNC(=O)c2[nH]c3ccc(Cl)cc3c2S(=O)(=O)c2cc(C)cc(C)c2)nn1", 6.77),
    ("Cc1cc(C)cc(S(=O)(=O)c2c(C(=O)NCc3cn(CC(=O)Nc4ccc(C(F)(F)F)cc4)nn3)[nH]c3ccc(Cl)cc23)c1", 6.23),
]

###

As shown below, each of these compounds has a reported pEC50 value.
# Test system: Human immunodeficiency virus 1
# Procedure summary: Antiviral activity against HIV-1 harboring Y181C mutant infected in human MT4 cells assessed as inhibition of virus induced cytotoxicity incubated for 5 days by spectrophometry based MTT assay
# Format: functional, organism-based
# Applied conditions: Human immunodeficiency virus 1, MT4, 120 h
pEC50: −log10 of the molar value.
Parameter measured: pEC50

# Compound structure, Sign qualifier, Measurement
records = [
    ("Cc1cc(C)cc(S(=O)(=O)c2c(C(=O)NCc3cn(CC(=O)Nc4ccc(Br)cc4)nn3)[nH]c3ccc(Cl)cc23)c1", "=", 6.27),
    ("COC(=O)CCCn1cc(CNC(=O)c2[nH]c3ccc(Cl)cc3c2S(=O)(=O)c2cc(C)cc(C)c2)nn1", "=", 6.24),
    ("Cc1cc(C)cc(S(=O)(=O)c2c(C(=O)NCc3cn(CC(=O)Nc4ccc(F)cc4)nn3)[nH]c3ccc(Cl)cc23)c1", "=", 5.97),
    ("Cc1cc(C)cc(S(=O)(=O)c2c(C(=O)NCc3cn(CC(=O)Nc4ccc(C(F)(F)F)cc4)nn3)[nH]c3ccc(Cl)cc23)c1", "<", 5.13),
]

###

Below: a set of entries, each annotated with reported CC50 at 120 h.
# Procedure summary: Cytotoxicity against human MT4 cells assessed as reduction in cell viability incubated for 5 days by MTT assay
# Format: toxicity, cell-based
# Applied conditions: time 5 day

# Compound, CC50 at 120 h
measured = [
    ("Cc1ccnc2c1NC(=O)c1cccnc1N2C1CC1 [NEVIRAPINE]", "> 15 µM"),
    ("Cc1cn([C@H]2C[C@H](N=[N+]=[N-])[C@@H](CO)O2)c(=O)[nH]c1=O [ZIDOVUDINE]", "> 7.48 µM"),
    ("Cc1cc(C)cc(S(=O)(=O)c2c(C(=O)NCc3cn(CC(=O)Nc4ccc(Br)cc4)nn3)[nH]c3ccc(Cl)cc23)c1", "15.8 µM"),
    ("COC(=O)CCCn1cc(CNC(=O)c2[nH]c3ccc(Cl)cc3c2S(=O)(=O)c2cc(C)cc(C)c2)nn1", "206 µM"),
    ("Cc1cc(C)cc(S(=O)(=O)c2c(C(=O)NCc3cn(CCCc4ccccc4)nn3)[nH]c3ccc(Cl)cc23)c1", "117 µM"),
    ("COC(=O)Cn1cc(CNC(=O)c2[nH]c3ccc(Cl)cc3c2S(=O)(=O)c2cc(C)cc(C)c2)nn1", "6.46 µM"),
    ("Cc1cc(C)cc(S(=O)(=O)c2c(C(=O)NCc3cn(Cc4cccc([N+](=O)[O-])c4)nn3)[nH]c3ccc(Cl)cc23)c1", "> 216 µM"),
    ("Cc1cc(C)cc(S(=O)(=O)c2c(C(=O)NCc3cn(CSc4ccccc4)nn3)[nH]c3ccc(Cl)cc23)c1", "> 221 µM"),
    ("Cc1cc(C)cc(S(=O)(=O)c2c(C(=O)NCc3cn(CCc4ccccc4)nn3)[nH]c3ccc(Cl)cc23)c1", "162 µM"),
    ("CCOC(=O)Cn1cc(CNC(=O)c2[nH]c3ccc(Cl)cc3c2S(=O)(=O)c2cc(C)cc(C)c2)nn1", "> 236 µM"),
    ("Cc1cc(C#N)cc(C)c1Oc1nc(Nc2ccc(C#N)cc2)nc(N)c1Br [ETRAVIRINE]", "> 6.33 µM"),
    ("Cc1cc(C)cc(S(=O)(=O)c2c(C(=O)NCc3cn(CC(=O)Nc4ccc(C(F)(F)F)cc4)nn3)[nH]c3ccc(Cl)cc23)c1", "17 µM"),
    ("Nc1ccn([C@@H]2CS[C@H](CO)O2)c(=O)n1 [LAMIVUDINE]", "> 87.2 µM"),
    ("Cc1cc(C)cc(S(=O)(=O)c2c(C(=O)NCc3cn(CC(=O)Nc4ccc(F)cc4)nn3)[nH]c3ccc(Cl)cc23)c1", "16.2 µM"),
    ("Cc1cc(C)cc(S(=O)(=O)c2c(C(=O)NCc3cn(Cc4ccccc4[N+](=O)[O-])nn3)[nH]c3ccc(Cl)cc23)c1", "> 216 µM"),
    ("Cc1cc(C)cc(S(=O)(=O)c2c(C(=O)NCc3cn(Cc4cccc5ccccc45)nn3)[nH]c3ccc(Cl)cc23)c1", "> 214 µM"),
    ("Cc1cc(C)cc(S(=O)(=O)c2c(C(=O)NCc3cn(Cc4cccc(C#N)c4)nn3)[nH]c3ccc(Cl)cc23)c1", "166 µM"),
]
